# test.summary: Initial rate of prodrug hydrolysis in human skeletal muscle S9 (HPLC)
# Assay type: in vitro ADME
# test.conditions: IVIVE model input, determined experimentally
Quick list: Hydrolysis muscle per entry.
measured.property: Hydrolysis muscle

[[record]]
compound = "CCCCOC(=O)Nc1nc(=O)n([C@@H]2CS[C@H](CO)O2)cc1F [prodrug 12]"
assay_result = "0.001 h⁻¹"

[[record]]
compound = "CCCCOC(=O)Nc1nc(=O)n([C@@H]2CS[C@H](COC(=O)OCCCC)O2)cc1F [prodrug 4]"
assay_result = "0.0290 h⁻¹"

[[record]]
compound = "CCCCCCCCOC(=O)Nc1nc(=O)n([C@@H]2CS[C@H](COC(=O)OCCCCCCCC)O2)cc1F [prodrug 8]"
assay_result = "0.0067 h⁻¹"

[[record]]
compound = "CCCCCCCCOC(=O)Nc1nc(=O)n([C@@H]2CS[C@H](CO)O2)cc1F [prodrug 16]"
assay_result = "0.004 h⁻¹"


The reported numbers originate from paper PMC6441007.
